# METHOD NOTES: protein stability index of a GFP-peptide fusion (yeast GPS) (PSI 1-4); higher = more stable; sorted into four equal gates, so the index is relative within each strain
# CONDITION CONTEXT: doa10∆
Would you mind labelling by protein stability index? At or over 2 is class 1, under is class 0.

NTATNALRPSDIFGANA [YOR098C/NUP1]	class 1
KKQAQKQTKLRKEKEKK [SMB1]	class 1
KSAEGNNIDQSLILKES [YAR002W/NUP60]	class 1

Is the recorded value of protein stability index equal to or greater than 2 for this sequence? SVLDEQEQYQTNTFEGS [SNU114]
class 1

Is the recorded value of protein stability index equal to or greater than 2 for this sequence? VPPTIAQFQYTLDRNTA [RPL8A]
class 0

Is the recorded value of protein stability index equal to or greater than 2 for this sequence? EKIWFAISKENLCGDIS [SIR3]
class 1

Is the recorded value of protein stability index equal to or greater than 2 for this sequence? SECIVSIKSKVVDHHVE [RRP42]
class 1
